STUDY TARGET: CquiOR2 + CquiOR7 (Culex quinquefasciatus, UniProt D5LMR6)
Sequence (Q309I4 entry or part of it): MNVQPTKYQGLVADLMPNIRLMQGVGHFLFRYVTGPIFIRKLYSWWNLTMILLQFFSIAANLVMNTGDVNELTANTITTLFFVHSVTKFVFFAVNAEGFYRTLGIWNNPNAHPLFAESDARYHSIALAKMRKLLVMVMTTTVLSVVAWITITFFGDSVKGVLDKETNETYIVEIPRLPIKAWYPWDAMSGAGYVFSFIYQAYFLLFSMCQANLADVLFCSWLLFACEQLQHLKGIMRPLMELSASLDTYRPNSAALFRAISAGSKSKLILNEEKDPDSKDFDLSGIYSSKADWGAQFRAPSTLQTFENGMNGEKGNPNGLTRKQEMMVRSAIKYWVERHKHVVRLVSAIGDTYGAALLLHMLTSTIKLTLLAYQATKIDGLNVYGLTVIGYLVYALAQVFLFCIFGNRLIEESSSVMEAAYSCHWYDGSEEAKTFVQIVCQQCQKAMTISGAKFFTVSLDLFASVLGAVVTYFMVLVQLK
Sequence (D5LMR6 entry or part of it): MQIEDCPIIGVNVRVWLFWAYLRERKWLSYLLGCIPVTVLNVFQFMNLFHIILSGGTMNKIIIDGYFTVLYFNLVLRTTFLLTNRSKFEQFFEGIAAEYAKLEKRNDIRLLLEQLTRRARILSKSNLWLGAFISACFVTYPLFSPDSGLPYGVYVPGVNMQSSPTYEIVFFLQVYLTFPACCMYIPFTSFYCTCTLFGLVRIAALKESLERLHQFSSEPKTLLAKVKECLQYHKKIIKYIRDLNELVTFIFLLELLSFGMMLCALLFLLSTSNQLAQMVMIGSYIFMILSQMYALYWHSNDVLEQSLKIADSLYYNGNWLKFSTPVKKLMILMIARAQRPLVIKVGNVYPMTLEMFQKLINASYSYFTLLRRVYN
ASSAY METHOD TEXT: Two-electrode voltage clamp of Xenopus oocytes expressing CquiOR2 + CquiOR7
Format: cell-based
Below: a set of entries, each annotated with reported EC50.
QUANTITY MEASURED: EC50 (µM)

- c1ccc2[nH]ccc2c1: 0.28
- Cn1ccc2ccccc21: 20
- Cc1ccccc1O: 7.3

====

STUDY TARGET: CquiOR2 + CquiOR7 (Culex quinquefasciatus, UniProt D5LMR6)
ASSAY METHOD TEXT: Two-electrode voltage clamp of Xenopus oocytes expressing CquiOR2 + CquiOR7
Assay type: cell-based
SETUP CONDITIONS: Hill fit of concentration-response data; mean ± SEM, 5–16 oocytes
Exam item: assign True to entries whose nH (Hill coefficient) is below 1 and False to entries at or above 1. Note that a value of exactly 1 receives False.

* Cn1ccc2ccccc21 | False
* Cc1cccc2cc[nH]c12 | False
* c1ccc2[nH]ccc2c1 | True
* Cc1c[nH]c2ccccc12 | True
* Cc1ccc2cc[nH]c2c1 | True
* Cc1ccc2[nH]ccc2c1 | False
* Cc1cc2ccccc2[nH]1 | True
